measurement_parameters: 308.15 K; 101 kPa; Liquid
Binary call on mass density: fulfilled from 1000 kg/m3 upward, not fulfilled beneath that.

# bool: mass density of CC#N [acetonitrile] >= 1000 kg/m3
not fulfilled

Evaluate CC(=O)c1ccc(Cl)cc1 [4'-chloroacetophenone] : mass density at minimum 1000 kg/m3?
fulfilled

====

measurement_parameters: 308.15 K; 101 kPa; Liquid; Linear variable-path acoustic interferometer
observation_type: speed of sound (m/s)
I only need the number, in m/s, no unit after it.

Note to self: speed of sound recorded for CCC(=O)c1ccccc1 was 1432

// field: speed of sound; key: CC#N ; value = 1239

get_value(item= CC(=O)c1ccc(C)cc1 , readout=speed of sound) returns 1438

Recorded speed of sound (compound CC(=O)c1ccc(Cl)cc1 ): 1390

Input CC(=O)c1ccccc1 . Output speed of sound: 1445
